measured on: Tissue alpha-L-fucosidase (Bos taurus) (UniProt Q2KIM0)
Sequence (whole entry): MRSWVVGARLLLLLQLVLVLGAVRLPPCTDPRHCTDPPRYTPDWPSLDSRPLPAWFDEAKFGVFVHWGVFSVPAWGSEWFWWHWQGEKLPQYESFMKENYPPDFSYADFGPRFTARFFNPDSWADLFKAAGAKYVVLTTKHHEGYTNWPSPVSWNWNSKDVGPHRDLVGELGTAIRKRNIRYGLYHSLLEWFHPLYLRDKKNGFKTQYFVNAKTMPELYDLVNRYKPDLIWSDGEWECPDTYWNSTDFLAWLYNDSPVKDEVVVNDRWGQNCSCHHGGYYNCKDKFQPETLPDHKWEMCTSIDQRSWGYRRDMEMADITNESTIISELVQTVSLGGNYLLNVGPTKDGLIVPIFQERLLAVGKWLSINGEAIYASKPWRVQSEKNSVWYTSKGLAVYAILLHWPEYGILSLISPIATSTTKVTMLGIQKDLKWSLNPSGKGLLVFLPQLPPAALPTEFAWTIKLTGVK
experimental protocol: Inhibition of bovine kidney alpha L-fucosidase at 1 mM
measure name: inhibition (%)

# molecule, unit abbreviation, inhibition
measured = [
    ("C[C@H]1[C@@H](O)[C@@H](O)[C@H](CNC(=O)[C@@H](N)CCCCN)NN1C(=O)OCc1ccccc1", "%", 77),
    ("C[C@H]1[C@@H](O)[C@@H](O)[C@H](CNC(=O)[C@@H](N)Cc2ccccc2)NN1C(=O)OCc1ccccc1", "%", 65),
    ("C[C@H]1[C@@H](O)[C@@H](O)[C@H](CN)NN1C(=O)OCc1ccccc1", "%", 92),
]

[P] C[C@@H]1[C@@H](O)[C@@H](O)[C@H](CN)NN1C(=O)OCc1ccccc1
[Q] C[C@@H]1NN[C@@H](CNC(=O)[C@@H](N)Cc2ccccc2)[C@H](O)[C@@H]1O
input: API: POST /compare with P and Q ; response names the item with higher inhibition. Field: selected label. Fill in the label of the entry you choose.
output: Q
(Q: 82%, P: 54%)

---

System: Prunus dulcis
experimental protocol: Inhibition of almond beta glucosidase at 1 mM
Activity calls are given as the source filed them. No cut-off for these calls is given here.
measure name: inhibition

# molecule, assay result
data = [
    ("C[C@H]1NN[C@@H](CO)[C@H](O)[C@@H]1O", "23%"),
    ("C[C@H]1NN[C@@H](CNC(=O)[C@@H](N)Cc2ccccc2)[C@H](O)[C@@H]1O", "inactive"),
    ("C[C@H]1[C@@H](O)[C@@H](O)[C@H](CNC(=O)[C@@H](N)CCCCN)NN1C(=O)OCc1ccccc1", "inactive"),
    ("C[C@@H]1[C@@H](O)[C@@H](O)[C@H](CNC(=O)[C@@H](N)Cc2ccccc2)NN1C(=O)OCc1ccccc1", "inactive"),
    ("CCCCCCCCCCCC(=O)NC[C@@H]1NN[C@H](C)[C@@H](O)[C@H]1O", "inactive"),
]

The compound C[C@H]1[C@@H](O)[C@@H](O)[C@H](CNC(=O)[C@@H](N)Cc2ccccc2)NN1C(=O)OCc1ccccc1 , when measured on Prunus dulcis, yielded inhibition of inactive

Value (inhibition, Prunus dulcis) for record C[C@@H]1NN[C@@H](CN)[C@H](O)[C@@H]1O = inactive

Record CCCCCCCCCCCC(=O)NC[C@@H]1NN[C@@H](C)[C@@H](O)[C@H]1O / Prunus dulcis, inhibition recorded as inactive

Value source: ChEMBL document CHEMBL1177655
